Target: UniProtKB P39900
Sequence (P39900 106-470, species assumed): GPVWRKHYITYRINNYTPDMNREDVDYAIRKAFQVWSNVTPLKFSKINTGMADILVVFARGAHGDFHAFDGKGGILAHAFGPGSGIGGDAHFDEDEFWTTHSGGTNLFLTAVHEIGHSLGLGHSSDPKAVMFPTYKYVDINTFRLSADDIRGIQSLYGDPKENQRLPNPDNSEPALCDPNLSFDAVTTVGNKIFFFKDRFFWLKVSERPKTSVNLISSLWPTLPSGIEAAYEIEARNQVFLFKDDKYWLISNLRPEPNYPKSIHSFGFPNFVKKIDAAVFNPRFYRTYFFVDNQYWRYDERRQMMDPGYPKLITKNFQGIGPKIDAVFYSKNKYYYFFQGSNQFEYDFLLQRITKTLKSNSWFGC
pIC50: −log10 of the molar value.
measured quantity: pIC50

O=C(NCc1ccc(-c2ccccc2)cc1)c1cccc(=O)n1O; 7.28
